molecular target: MDR1 (Homo sapiens); construct: host or cells: MDCK-MDR1 (Preadyport); experiment: MDR1 efflux substrate assay in MDCK-MDR1; format: in vitro ADME; settings: dog; MDCK-MDR1, 5µM, 60 min, pH 7.4; read-out: Papp A (donor) to B (acceptor)
reported.property: Papp A→B at 60 min, 5 µM (×10⁻⁶ cm/s)

1) N[C@H]1CCC[C@@H]1Nc1nc(NCc2ccc(-c3ccccn3)cc2)n2ncc(Br)c2n1 [Compound 2668] :: 1.36
2) N[C@H]1CCN(c2nc(NCc3ccc(-c4ccccn4)cc3)n3ncc(Br)c3n2)C1 [Compound 2655] :: 5.13

* * *

target: MDR1 (Homo sapiens, UniProt P08183); construct: host or cells: MDCK-MDR1 (Preadyport); assay: MDR1 efflux substrate assay in MDCK-MDR1; type: in vitro ADME; settings: dog; MDCK-MDR1, 5µM, 60 min, pH 7.4; read-out: Papp A (donor) to B (acceptor)
Sequence (P08183 whole entry): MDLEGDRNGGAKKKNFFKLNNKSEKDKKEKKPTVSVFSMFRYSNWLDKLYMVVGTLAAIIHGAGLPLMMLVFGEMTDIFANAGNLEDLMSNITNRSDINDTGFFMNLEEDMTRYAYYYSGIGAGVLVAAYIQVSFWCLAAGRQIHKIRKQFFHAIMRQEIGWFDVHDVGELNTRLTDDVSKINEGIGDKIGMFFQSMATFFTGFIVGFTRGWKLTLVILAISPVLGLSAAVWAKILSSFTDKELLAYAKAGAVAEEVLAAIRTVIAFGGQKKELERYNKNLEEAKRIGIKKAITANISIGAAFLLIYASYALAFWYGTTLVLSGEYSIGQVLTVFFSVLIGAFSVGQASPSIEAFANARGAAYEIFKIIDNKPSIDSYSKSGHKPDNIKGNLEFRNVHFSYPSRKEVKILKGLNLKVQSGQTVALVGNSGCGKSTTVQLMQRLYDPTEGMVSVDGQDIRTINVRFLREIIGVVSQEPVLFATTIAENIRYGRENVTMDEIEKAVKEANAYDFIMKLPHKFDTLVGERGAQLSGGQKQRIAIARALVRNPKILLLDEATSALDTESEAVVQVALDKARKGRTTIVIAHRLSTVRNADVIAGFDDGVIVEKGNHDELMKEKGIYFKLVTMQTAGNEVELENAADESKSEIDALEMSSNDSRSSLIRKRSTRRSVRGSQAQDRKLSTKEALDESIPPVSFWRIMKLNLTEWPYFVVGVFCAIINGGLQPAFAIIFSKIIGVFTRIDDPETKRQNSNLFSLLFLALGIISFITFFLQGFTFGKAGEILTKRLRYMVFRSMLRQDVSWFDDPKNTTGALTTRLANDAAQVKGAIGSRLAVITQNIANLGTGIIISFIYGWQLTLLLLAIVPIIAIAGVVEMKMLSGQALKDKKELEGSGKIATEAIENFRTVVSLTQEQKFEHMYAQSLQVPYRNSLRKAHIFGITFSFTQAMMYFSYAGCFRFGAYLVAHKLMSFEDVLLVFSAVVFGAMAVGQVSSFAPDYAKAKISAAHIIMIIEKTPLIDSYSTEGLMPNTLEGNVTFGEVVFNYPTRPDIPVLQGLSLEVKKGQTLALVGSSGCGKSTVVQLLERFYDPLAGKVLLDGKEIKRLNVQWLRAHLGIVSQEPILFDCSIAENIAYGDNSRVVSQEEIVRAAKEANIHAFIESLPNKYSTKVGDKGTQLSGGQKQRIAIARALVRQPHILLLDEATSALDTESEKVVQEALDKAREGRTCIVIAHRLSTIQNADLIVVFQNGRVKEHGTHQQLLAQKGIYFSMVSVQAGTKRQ
reported.property: Papp A→B at 1 h, 5 µM

1. N[C@H]1CC[C@H](Nc2nc(NCc3ccc(-c4ccccn4)cc3)n3ncc(Br)c3n2)CC1 [Compound 2384] :: < 0.25 ×10⁻⁶ cm/s

* * *

System: NCI-N87
Assay: In vitro cytotoxicity assay (MTT)
Assay type: cell-based, human
Conditions: Homo sapiens, NCI-N87, 144 h, 6 days incubation
Method: In vitro cytotoxicity of compounds of the disclosure was assessed on several cancerous human cell lines. […] Absorbance values were measured on a microplate reader using a wavelength of 570 nm (with a reference wavelength of 690 nm). The IC50 concentration values compared to untreated control cells were determined using inhibition dose response curve fitting (GraphPad Prism 9). […]
pIC50: −log10 of the molar value.
pIC50: recorded values
reported.property: pIC50

1) N[C@H]1CCC[C@@H]1Nc1nc(NCc2ccc(-c3ccccn3)cc2)n2ncc(Br)c2n1 :: 9.08
2) N[C@H]1CCN(c2nc(NCc3ccc(-c4ccccn4)cc3)n3ncc(Br)c3n2)C1 :: 8.71
3) NC1CCN(c2nc(NCc3ccc(-c4ccccn4)cc3)n3ncc(Br)c3n2)CC1 :: 8.88
4) CC(C)c1cnn2c(NCc3ccc(-c4ccccn4)cc3)nc(NC3CCNCC3)nc12 :: 8.35
5) NC[C@H]1CC[C@H](Nc2nc(NCc3ccc(-c4ccccn4)cc3)n3ncc(Br)c3n2)CC1 :: 8.61
6) Brc1cnn2c(NCc3ccc(-c4ccccn4)cc3)nc(N[C@@H]3CCCNC3)nc12 :: 9.47
7) N[C@H]1CC[C@H](Nc2nc(NCc3ccc(-c4ccccn4)cc3)n3ncc(Br)c3n2)C1 :: 9.41
8) Nc1ccc(Nc2nc(NCc3ccc(-c4ccccn4)cc3)n3ncc(Br)c3n2)cc1 :: 8.03
9) Brc1cnn2c(NCc3ccc(-c4ccccn4)cc3)nc(NC3CCCNC3)nc12 (racemic) :: 9.11
10) Brc1cnn2c(NCc3ccc(-c4ccccn4)cc3)nc(N3CCC(N4CCNCC4)CC3)nc12 :: 8.52
11) NCCCCNc1nc(NCc2ccc(-c3ccccn3)cc2)n2ncc(Br)c2n1 :: 7.81
12) Brc1cnn2c(NCc3ccc(-c4ccccn4)cc3)nc(N3CCNCC3)nc12 :: 8.57
13) NCCCNc1nc(NCc2ccc(-c3ccccn3)cc2)n2ncc(Br)c2n1 :: 8.19
14) CNCCNc1nc(NCc2ccc(-c3ccccn3)cc2)n2ncc(Br)c2n1 :: 8.50
15) CC(C)c1cnn2c(NCc3ccc(-c4ccccn4)cc3)nc(N[C@H]3CC[C@H](N)CC3)nc12 :: 8.31
16) Brc1cnn2c(NCc3ccc(-c4ccccn4)cc3)nc(NC3CCNCC3)nc12 :: 8.85

* * *

biological target: CDK9/CycK (Homo sapiens); construct: GST-fusion or His-tag (not given for this kinase); assay: IC50 profiling on top 25 protein kinases; settings: titration from 0.1 nM to 10 000 nM
Sequence (P50750 whole entry, the tested form may be a part): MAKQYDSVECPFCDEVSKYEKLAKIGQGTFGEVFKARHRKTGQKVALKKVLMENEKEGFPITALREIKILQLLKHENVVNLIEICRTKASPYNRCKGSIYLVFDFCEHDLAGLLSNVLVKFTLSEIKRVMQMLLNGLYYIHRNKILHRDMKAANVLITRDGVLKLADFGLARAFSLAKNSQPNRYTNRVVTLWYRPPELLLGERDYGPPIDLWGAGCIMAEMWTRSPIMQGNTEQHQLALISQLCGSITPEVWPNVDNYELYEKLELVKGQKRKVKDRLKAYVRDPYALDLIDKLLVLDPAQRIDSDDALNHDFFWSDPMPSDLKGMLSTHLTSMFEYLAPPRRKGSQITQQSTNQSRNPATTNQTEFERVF
Sequence (O75909 whole entry partner, the tested form may be a part): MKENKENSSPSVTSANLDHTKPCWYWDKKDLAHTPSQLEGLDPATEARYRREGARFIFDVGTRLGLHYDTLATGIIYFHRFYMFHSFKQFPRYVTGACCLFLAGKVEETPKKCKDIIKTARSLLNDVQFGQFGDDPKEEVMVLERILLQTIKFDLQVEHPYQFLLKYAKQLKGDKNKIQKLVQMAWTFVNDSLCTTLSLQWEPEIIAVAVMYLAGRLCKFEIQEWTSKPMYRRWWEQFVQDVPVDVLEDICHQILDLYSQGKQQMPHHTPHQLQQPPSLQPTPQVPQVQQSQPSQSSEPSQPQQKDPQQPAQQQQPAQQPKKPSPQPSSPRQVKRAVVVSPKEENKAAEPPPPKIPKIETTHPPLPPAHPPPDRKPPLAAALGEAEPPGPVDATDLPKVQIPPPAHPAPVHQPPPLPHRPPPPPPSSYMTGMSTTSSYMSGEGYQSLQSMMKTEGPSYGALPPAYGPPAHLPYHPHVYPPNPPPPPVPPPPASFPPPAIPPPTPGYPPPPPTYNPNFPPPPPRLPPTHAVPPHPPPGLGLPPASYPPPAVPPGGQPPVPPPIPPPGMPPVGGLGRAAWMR
reported.property: IC50

1. N[C@H]1CC[C@H](Nc2nc(NCc3ccc(-c4ccccn4)cc3)n3ncc(Br)c3n2)CC1 :: < 25 nM

* * *

Test system: BXPC3
Assay: In vitro cytotoxicity assay (MTT)
Assay type: cell-based
Settings: Homo sapiens, BXPC-3, 144 h, 6 days incubation
Experimental: In vitro cytotoxicity of compounds of the disclosure was assessed on several cancerous human cell lines. […] Absorbance values were measured on a microplate reader using a wavelength of 570 nm (with a reference wavelength of 690 nm). The IC50 concentration values compared to untreated control cells were determined using inhibition dose response curve fitting (GraphPad Prism 9). […]
reported.property: log10 IC50 (log10 of the value in nM)

1) Brc1cnn2c(NCc3ccc(-c4ccccn4)cc3)nc(NC3CCNCC3)nc12 :: 0.29
2) CNCCN(C)c1nc(NCc2ccc(-c3ccccn3)cc2)n2ncc(Br)c2n1 :: 0.46
3) NC1CCN(c2nc(NCc3ccc(-c4ccccn4)cc3)n3ncc(Br)c3n2)CC1 :: 0.21
4) Brc1cnn2c(NCc3ccc(-c4ccccn4)cc3)nc(NC[C@@H]3CCCN3)nc12 :: 0.73
5) CNCCNc1nc(NCc2ccc(-c3ccccn3)cc2)n2ncc(Br)c2n1 :: 0.39
6) N[C@H]1CC[C@@H](Nc2nc(NCc3ccc(-c4ccccn4)cc3)n3ncc(Br)c3n2)CC1 :: 0.69
7) Brc1cnn2c(NCc3ccc(-c4ccccn4)cc3)nc(N3CCC(N4CCNCC4)CC3)nc12 :: 1.56
8) N[C@H]1CC[C@H](Nc2nc(NCc3ccc(-c4ccccn4)cc3)n3ncc(Cl)c3n2)CC1 :: 0.07
9) Brc1cnn2c(NCc3ccc(-c4ccccn4)cc3)nc(NC3CCCNC3)nc12 (racemic) :: 0.06
10) N[C@H]1CC[C@H](CNc2nc(NCc3ccc(-c4ccccn4)cc3)n3ncc(Br)c3n2)CC1 :: 1.60

* * *

Target: BCRP (Homo sapiens, UniProt Q9UNQ0)
Construct: host or cells: MDCK-BCRP (Preadyport)
Sequence (Q9UNQ0 1-655): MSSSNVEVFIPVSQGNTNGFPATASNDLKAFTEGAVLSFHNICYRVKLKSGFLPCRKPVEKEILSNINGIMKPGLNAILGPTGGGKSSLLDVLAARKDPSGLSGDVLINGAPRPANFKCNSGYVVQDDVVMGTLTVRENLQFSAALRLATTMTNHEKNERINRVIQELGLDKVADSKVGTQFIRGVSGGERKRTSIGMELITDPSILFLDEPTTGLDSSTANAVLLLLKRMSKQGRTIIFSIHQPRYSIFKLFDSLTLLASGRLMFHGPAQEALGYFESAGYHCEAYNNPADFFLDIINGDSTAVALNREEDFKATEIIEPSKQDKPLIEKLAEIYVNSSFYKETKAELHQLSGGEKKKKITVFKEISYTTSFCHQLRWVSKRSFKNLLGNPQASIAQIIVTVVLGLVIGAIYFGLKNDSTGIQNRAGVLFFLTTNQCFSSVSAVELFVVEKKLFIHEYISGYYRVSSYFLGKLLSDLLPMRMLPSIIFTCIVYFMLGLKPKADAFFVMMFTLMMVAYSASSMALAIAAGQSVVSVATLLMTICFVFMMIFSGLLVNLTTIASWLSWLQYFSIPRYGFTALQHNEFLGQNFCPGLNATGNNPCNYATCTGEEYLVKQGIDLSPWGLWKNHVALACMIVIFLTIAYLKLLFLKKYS
Assay: BCRP efflux substrate assay in MDCK-BCRP
Format: in vitro ADME
Conditions: dog, pH 7.4; MDCK-BCRP; read-out: Efflux ratio B/A
reported.property: efflux ratio at 60 min, 5 µM

1) NCC1CCN(c2nc(NCc3ccc(-c4ccccn4)cc3)n3ncc(Br)c3n2)CC1 :: 4.94
2) Brc1cnn2c(NCc3ccc(-c4ccccn4)cc3)nc(NC[C@@H]3CCCN3)nc12 :: 12.9
3) NCCCCNc1nc(NCc2ccc(-c3ccccn3)cc2)n2ncc(Br)c2n1 :: 27.9
4) NC[C@H]1CC[C@H](Nc2nc(NCc3ccc(-c4ccccn4)cc3)n3ncc(Br)c3n2)CC1 :: 6.21
5) CNCCN(C)c1nc(NCc2ccc(-c3ccccn3)cc2)n2ncc(Br)c2n1 :: 1.31
6) N[C@H]1CC[C@@H](Nc2nc(NCc3ccc(-c4ccccn4)cc3)n3ncc(Br)c3n2)CC1 :: 23.6
7) N[C@H]1CCCC[C@@H]1Nc1nc(NCc2ccc(-c3ccccn3)cc2)n2ncc(Br)c2n1 :: 4.54
8) N[C@H]1CCN(c2nc(NCc3ccc(-c4ccccn4)cc3)n3ncc(Br)c3n2)C1 :: 3.47
9) CC[C@@]1(O)C(=O)OCc2c1cc1n(c2=O)Cc2c-1nc1cc(F)c(C)c3c1c2[C@@H](N)CC3 [Exatecan, reference compound] :: 12.3
10) N[C@H]1CCC[C@@H](Nc2nc(NCc3ccc(-c4ccccn4)cc3)n3ncc(Br)c3n2)C1 :: 5.93
11) CN(CCN)c1nc(NCc2ccc(-c3ccccn3)cc2)n2ncc(Br)c2n1 :: 2.1
12) N[C@H]1CCC[C@@H]1Nc1nc(NCc2ccc(-c3ccccn3)cc2)n2ncc(Br)c2n1 :: 6.99
